meta.source: ChEMBL document CHEMBL1268889

Test system: B16
Assay: Inhibition of melanogenesis in mouse B16 cells
Format: functional, cell-based
quantity: IC50 (µM)

Past entries and their recorded results:
> print(dat)
                structure  quantity  unit.tag  observed
1  NC(=S)N/N=C/c1ccccc1Cl      IC50        µM       1.4
2  CCc1ccccc1/C=N/NC(N)=S      IC50        µM       2.7
3   Cc1ccccc1/C=N/NC(N)=S      IC50        µM       3.4

A. NC(=S)N/N=C/c1cccc(Cl)c1
B. NC(=S)N/N=C\c1cccc2ccccc12
Problem: Smaller IC50 value, A vs B ? Refer to your chosen entry by its label in the reply.
Result: B
(B: 1.1 µM, A: 2.4 µM)

A. Cc1cccc(/C=N/NC(N)=S)c1
B. COc1cccc(/C=N/NC(N)=S)c1
C. NC(=S)N/N=C/c1ccc(Cl)cc1
Problem: Order these by IC50, descending, and give the full ranking. Provide the labels, sequenced as the question asks.
Result: B, C, A

a. COc1ccc(/C=N/NC(N)=S)cc1
b. NC(=S)N/N=C/C1CCCCC1
Problem: Compare reported IC50 values for a and b . Which is lower? Record your answer as the label of the chosen record.
Result: b

====

System: B16
Assay: Inhibition of melanogenesis in mouse B16 cells
Format: functional, cell-based
quantity: IC50

Below, 2 molecules whose answers are already recorded.
> print(dat)
               structure  quantity  observed
1   NC(=S)N/N=C/c1ccccc1      IC50   > 10 µM
2  N/C(S)=N/N=C/c1ccccn1      IC50   > 30 µM

Next molecule, please.
Problem: Entry NC(=S)N/N=C/c1ccccc1O : reported IC50 = ?
Result: 21 µM
